As shown below, each of these molecules has a reported IC50 value.
# target-desc: human Dopamine D3 receptor (Homo sapiens, UniProt P35462)
# Construct: expressed in transfected cells; host or cells: CHO cells (membranes)
# Sequence (P35462 whole entry): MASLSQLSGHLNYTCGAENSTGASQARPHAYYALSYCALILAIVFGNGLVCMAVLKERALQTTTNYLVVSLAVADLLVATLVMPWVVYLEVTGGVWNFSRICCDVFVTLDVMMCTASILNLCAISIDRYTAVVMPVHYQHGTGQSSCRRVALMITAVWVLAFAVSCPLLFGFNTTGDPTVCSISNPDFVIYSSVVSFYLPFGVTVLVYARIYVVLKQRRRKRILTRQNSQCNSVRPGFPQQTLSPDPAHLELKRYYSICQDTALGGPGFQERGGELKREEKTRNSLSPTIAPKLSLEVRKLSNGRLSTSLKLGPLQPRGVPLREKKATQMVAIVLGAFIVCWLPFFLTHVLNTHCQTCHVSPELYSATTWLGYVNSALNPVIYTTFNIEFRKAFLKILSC
# experimental-details: In vitro binding affinity for human D3 receptor ([125I]iodosulpride)
Response body: numeric value in µM, unit text excluded.

- mol-smiles: "Fc1ccccc1-c1cc(N2CCNCC2)nnc1C(F)(F)F"
  property-label: "IC50"
  unit: "µM"
  measured: 0.0525

Input: Specify measured IC50 for `Fc1ccc(-c2cc(N3CCNCC3)nnc2C(F)(F)F)cc1` .
Output: 0.0363

###

# target-desc: human Dopamine D2L receptor (Homo sapiens, UniProt P14416)
# Construct: expressed in transfected cells; host or cells: CHO cells (membranes)
# Sequence (P14416 whole entry): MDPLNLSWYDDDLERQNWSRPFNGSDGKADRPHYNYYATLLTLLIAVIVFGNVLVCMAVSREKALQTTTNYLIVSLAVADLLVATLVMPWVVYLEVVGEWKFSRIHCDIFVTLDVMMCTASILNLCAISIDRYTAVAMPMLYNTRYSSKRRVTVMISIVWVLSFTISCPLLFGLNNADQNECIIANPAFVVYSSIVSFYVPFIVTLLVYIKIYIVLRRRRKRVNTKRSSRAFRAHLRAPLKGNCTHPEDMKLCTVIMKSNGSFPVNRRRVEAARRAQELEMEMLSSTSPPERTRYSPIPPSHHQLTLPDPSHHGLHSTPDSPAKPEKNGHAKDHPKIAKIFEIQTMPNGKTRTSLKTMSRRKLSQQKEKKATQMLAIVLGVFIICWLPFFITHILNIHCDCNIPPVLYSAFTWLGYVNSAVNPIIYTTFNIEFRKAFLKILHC
# experimental-details: In vitro binding affinity for human D2L receptor ([3H]spiperone)
# condition-parameters: membranes of human D2L receptor-transfected CHO cells, read-out: D2L binding pIC50 (converted)
Response field label: string, one of TRUE (IC50 strictly below 600 nM) or FALSE.

For orientation, consider the following solved cases.
- compound: "Fc1ccc(-c2cc(N3CCNCC3)nnc2C(F)(F)F)cc1 [Example E6]"
  class-label: "TRUE"
- compound: "Cc1cc(F)ccc1-c1cc(N2CCNCC2)nnc1C(F)(F)F [Example E28]"
  class-label: "TRUE"
- compound: "Cc1cscc1-c1cc(N2CCNCC2)nnc1C(F)(F)F [Example E29]"
  class-label: "FALSE"

Input: Please let me know if Fc1ccccc1-c1cc(N2CCNCC2)nnc1C(F)(F)F [Example E33] shows IC50 below 600 nM.
Output: FALSE

Input: Please let me know if CCN1CCN(c2cc(-c3ccccc3)c(C(F)(F)F)nn2)CC1 [Example E2] shows IC50 below 600 nM.
Output: TRUE

Input: Please let me know if FC(F)(F)c1nnc(N2CCNCC2)cc1-c1ccc(Cl)cc1 [Example E12] shows IC50 below 600 nM.
Output: FALSE

Input: Please let me know if CN1CCN(c2cc(-c3ccccc3)c(C(F)(F)F)nn2)CC1 [Example E22] shows IC50 below 600 nM.
Output: FALSE

Input: Please let me know if FC(F)(F)c1nnc(N2CCN3CCCC3C2)cc1-c1ccccc1 (racemic) [Example E5] shows IC50 below 600 nM.
Output: FALSE
